target: Prolyl endopeptidase FAP (Homo sapiens); experiment: hFAP Binding Assay
The reader will find reported koff values listed item by item below.
METRIC_NAME: koff (s⁻¹)

• C[C@H]1N(c2ccc3nccc(C(=O)NCC(=O)N4CSC[C@H]4C#N)c3c2)CC1(F)F = 9.2e-05
• COc1ccc(-c2ccc3nccc(C(=O)NCC(=O)N4CSC[C@H]4C#N)c3c2)cn1 = 0.00017
• CC1(C)CCN(c2ccc3nccc(C(=O)NCC(=O)N4CSC[C@H]4C#N)c3c2)C1 = 8.9e-05
• N#C[C@@H]1CSCN1C(=O)CNC(=O)c1ccnc2ccc(N3CC(F)(C4CC4)C3)cc12 = 0.00024
• N#C[C@@H]1CSCN1C(=O)CNC(=O)c1ccnc2ccc(N3CC(F)(F)C3)cc12 = 0.00018
• C[C@H]1CCN(c2ccc3nccc(C(=O)NCC(=O)N4CSC[C@H]4C#N)c3c2)CCO1 = 8.5e-05
• N#C[C@@H]1CSCN1C(=O)CNC(=O)c1ccnc2ccc(N3CCCCC3)cc12 = 2.9e-05

* * *

biological target: UniProtKB Q12884; assay: hFAP Binding Assay
The reader will find reported log10(koff) values listed item by item below.
METRIC_NAME: log10(koff) (log10 of the value in s⁻¹)

• Cn1nccc1-c1ccc2nccc(C(=O)NCC(=O)N3CSC[C@H]3C#N)c2c1 [US20230312550, Example 174] = -3.62
• N#C[C@@H]1CSCN1C(=O)CNC(=O)c1ccnc2ccc(-n3ccc4c3CCCC4)cc12 [US20230312550, Example 219] = -3.70
• N#C[C@@H]1CSCN1C(=O)CNC(=O)c1ccnc2ccc(N3CC4(CC4)C3)cc12 [US20230312550, Example 164] = -4.44
• CS(=O)(=O)C[C@H]1CN(c2ccc3nccc(C(=O)NCC(=O)N4CSC[C@H]4C#N)c3c2)CCO1 [US20230312550, Example 92] = -3.96
• CC1(F)CCN(c2ccc3nccc(C(=O)NCC(=O)N4CSC[C@H]4C#N)c3c2)CC1 [US20230312550, Example 34] = -4.09
• N#C[C@@H]1CSCN1C(=O)CNC(=O)c1ccnc2ccc(N3CC(CC(F)F)C3)cc12 [US20230312550, Example 144] = -3.29
• N#C[C@@H]1CSCN1C(=O)CNC(=O)c1ccnc2ccc(N3CC[C@H](F)C3)cc12 [US20230312550, Example 51] = -3.96

* * *

Biological target: Prolyl endopeptidase FAP (Homo sapiens)
Sequence (Q12884 whole entry): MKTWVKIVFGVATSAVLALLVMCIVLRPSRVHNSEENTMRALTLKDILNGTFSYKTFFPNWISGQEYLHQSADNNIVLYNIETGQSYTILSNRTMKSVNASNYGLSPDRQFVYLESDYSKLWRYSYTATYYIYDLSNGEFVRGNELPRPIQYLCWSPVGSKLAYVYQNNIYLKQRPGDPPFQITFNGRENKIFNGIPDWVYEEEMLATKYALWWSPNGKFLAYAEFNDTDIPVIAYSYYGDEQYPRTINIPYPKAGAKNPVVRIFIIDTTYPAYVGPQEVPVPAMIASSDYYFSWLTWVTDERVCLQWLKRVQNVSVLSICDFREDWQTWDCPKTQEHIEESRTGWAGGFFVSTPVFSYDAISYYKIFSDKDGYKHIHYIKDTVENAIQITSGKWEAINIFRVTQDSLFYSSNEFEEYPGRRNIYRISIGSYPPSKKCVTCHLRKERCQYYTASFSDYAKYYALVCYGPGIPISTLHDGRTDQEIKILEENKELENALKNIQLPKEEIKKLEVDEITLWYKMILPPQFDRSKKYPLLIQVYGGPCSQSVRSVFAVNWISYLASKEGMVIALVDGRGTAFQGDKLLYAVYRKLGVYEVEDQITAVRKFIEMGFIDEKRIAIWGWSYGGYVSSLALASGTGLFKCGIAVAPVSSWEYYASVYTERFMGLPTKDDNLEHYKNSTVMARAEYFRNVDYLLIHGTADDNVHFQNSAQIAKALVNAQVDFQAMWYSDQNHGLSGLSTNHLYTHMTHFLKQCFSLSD
Assay: hFAP Binding Assay
Conditions: read-out: kon (M-1-s-1)
METRIC_NAME: kon (M⁻¹ s⁻¹)

* CC1(O)CCN(c2ccc3nccc(C(=O)NCC(=O)N4CSC[C@H]4C#N)c3c2)CC1 | 1.8e+06
* N#C[C@@H]1CSCN1C(=O)CNC(=O)c1ccnc2ccc(N3CCC4(CCOCC4)CC3)cc12 | 1.9e+06
* N#C[C@@H]1CSCN1C(=O)CNC(=O)c1ccnc2ccc(N3CC(Cc4ccc(Cl)cc4)C3)cc12 | 3.1e+06
* CC1CC2(C1)CN(c1ccc3nccc(C(=O)NCC(=O)N4CSC[C@H]4C#N)c3c1)C2 | 4.8e+06
* N#C[C@@H]1CSCN1C(=O)CNC(=O)c1ccnc2ccc(N3CC4(CC(C(F)(F)F)C4)C3)cc12 | 280000
* N#C[C@@H]1CSCN1C(=O)CNC(=O)c1ccnc2ccc(-n3ccc4c(F)cc(F)cc43)cc12 | 610000
* N#C[C@@H]1CSCN1C(=O)CNC(=O)c1ccnc2ccc(N3CCC(F)(c4ccccc4)CC3)cc12 | 2.5e+06
* N#C[C@@H]1CSCN1C(=O)CNC(=O)c1ccnc2ccc(N3CCCCC3)cc12 | 1.3e+06
* N#C[C@@H]1CSCN1C(=O)CNC(=O)c1ccnc2ccc(N3CC4CC(C3)O4)cc12 | 4.8e+06
* N#C[C@@H]1CSCN1C(=O)CNC(=O)c1ccnc2ccc(N3C[C@@H]4CC[C@H]3C4)cc12 (mixture of isomers) | 3.8e+06
* CC1(C(F)F)CN(c2ccc3nccc(C(=O)NCC(=O)N4CSC[C@H]4C#N)c3c2)C1 | 1.7e+06
* Cc1ccc(-c2ccc3nccc(C(=O)NCC(=O)N4CSC[C@H]4C#N)c3c2)cn1 | 100000
* N#C[C@@H]1CSCN1C(=O)CNC(=O)c1ccnc2ccc(N3C4CCCC3COC4)cc12 | 730000
* N#C[C@@H]1CSCN1C(=O)CNC(=O)c1ccnc2ccc(N3CC(F)C3)cc12 | 3e+06

* * *

The reader will find reported koff values listed item by item below.
Molecular target: Prolyl endopeptidase FAP (Homo sapiens)
Sequence (Q12884 whole entry): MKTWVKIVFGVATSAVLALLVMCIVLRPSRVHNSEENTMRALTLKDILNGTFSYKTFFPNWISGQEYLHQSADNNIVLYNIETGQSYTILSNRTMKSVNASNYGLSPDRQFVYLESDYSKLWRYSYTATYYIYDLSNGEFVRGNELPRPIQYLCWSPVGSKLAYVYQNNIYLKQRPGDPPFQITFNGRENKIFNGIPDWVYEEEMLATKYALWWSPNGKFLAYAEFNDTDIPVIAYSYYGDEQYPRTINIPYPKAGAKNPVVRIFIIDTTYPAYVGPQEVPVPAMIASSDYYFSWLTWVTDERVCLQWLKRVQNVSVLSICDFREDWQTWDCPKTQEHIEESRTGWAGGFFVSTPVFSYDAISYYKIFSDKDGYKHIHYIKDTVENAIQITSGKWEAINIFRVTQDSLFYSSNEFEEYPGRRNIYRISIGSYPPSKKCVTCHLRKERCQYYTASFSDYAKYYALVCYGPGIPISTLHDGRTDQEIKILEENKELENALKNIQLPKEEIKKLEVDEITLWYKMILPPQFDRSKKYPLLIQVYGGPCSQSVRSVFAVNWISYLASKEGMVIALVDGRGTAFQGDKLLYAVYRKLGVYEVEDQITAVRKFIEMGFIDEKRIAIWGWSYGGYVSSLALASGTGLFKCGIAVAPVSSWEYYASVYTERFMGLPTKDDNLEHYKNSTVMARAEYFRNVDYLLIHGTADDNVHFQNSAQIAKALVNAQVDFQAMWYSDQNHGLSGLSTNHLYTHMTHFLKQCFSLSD
Experiment: hFAP Binding Assay
METRIC_NAME: koff (s⁻¹)

• CC1(C)CCN1c1ccc2nccc(C(=O)NCC(=O)N3CSC[C@H]3C#N)c2c1 = 0.00012
• CC(F)(F)CC1CN(c2ccc3nccc(C(=O)NCC(=O)N4CSC[C@H]4C#N)c3c2)C1 = 0.00016
• C[C@@H]1CCCN(c2ccc3nccc(C(=O)NCC(=O)N4CSC[C@H]4C#N)c3c2)C1=O = 5.8e-05
• N#C[C@@H]1CSCN1C(=O)CNC(=O)c1ccnc2ccc(N3CC(N4CCOCC4)C3)cc12 = 4.3e-05
• N#C[C@@H]1CSCN1C(=O)CNC(=O)c1ccnc2ccc(N3CCCCC3=O)cc12 = 6.4e-05
• C[C@@H]1CN(c2ccc3nccc(C(=O)NCC(=O)N4CSC[C@H]4C#N)c3c2)C[C@H](C)[C@]1(C)O = 0.00012

* * *

molecular target: Prolyl endopeptidase FAP (Homo sapiens); assay: hFAP Binding Assay
METRIC_NAME: koff

* Cc1cc2nccc(C(=O)NCC(=O)N3CSC[C@H]3C#N)c2cc1N1CCOCC1 | 5.6e-05 s⁻¹
* N#C[C@@H]1CSCN1C(=O)CNC(=O)c1ccnc2ccc(N3CC(Cc4ccc(Cl)cc4)C3)cc12 | 0.00022 s⁻¹
* CC1(C)CCCN(c2ccc3nccc(C(=O)NCC(=O)N4CSC[C@H]4C#N)c3c2)C1=O | 4.6e-05 s⁻¹
* N#C[C@@H]1CSCN1C(=O)CNC(=O)c1ccnc2ccc(N3CCCC[C@H]3CF)cc12 | 0.00018 s⁻¹
